Target: folate receptor alpha (FRα) on cells (human, UniProt P15328 25-234)
Sequence (P15328 25-234): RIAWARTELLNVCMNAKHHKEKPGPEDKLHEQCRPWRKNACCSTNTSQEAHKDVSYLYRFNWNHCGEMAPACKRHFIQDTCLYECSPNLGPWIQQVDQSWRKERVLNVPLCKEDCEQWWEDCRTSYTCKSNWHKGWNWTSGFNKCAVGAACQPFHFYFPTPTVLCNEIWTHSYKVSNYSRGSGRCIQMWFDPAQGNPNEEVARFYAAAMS
Assay: cell-based or functional assay
Property: IC50, in vitro cytotoxicity (WST-8, 5 days), Jeg-3 cells, ADC (nM)
One number for each entry, in nM.

{"columns": ["Binder", "Numeric Value"],
 "data": [
  ["Mov19v1.6-GMBS-dAlalAla-PAB-DM1 (conjugate 4b) (antibody, human IgG1, kappa, V domains shown, D-Ala-L-Ala-PAB-DM1 linked through GMBS, about 3.5 DM/Ab) VH: QVQLVQSGAEVVKPGASVKISCKASGYTFTGYFMNWVKQSPGQSLEWIGRIHPYDGDTFYNQKFQGKATLTVDKSSNTAHMELLSLTSEDFAVYYCTRYDGSRAMDYWGQGTTVTVSS VL: DIVLTQSPLSLAVSLGQPAIISCKASQSVSFAGTSLMHWYHQKPGQQPRLLIYRASNLEAGVPDRFSGSGSKTDFTLTISPVEAEDAATYYCQQSREYPYTFGGGTKLEIKR", 0.2]
]}

API: the following record is the query input.
Lab note: measured IC50, in vitro cytotoxicity (WST-8, 5 days), Jeg-3 cells, ADC of conjugate 17h (antibody, human IgG1, kappa, V domains shown, thio-peptide-maytansinoid 14h linked through sulfo-GMBS to antibody amines (Example 4)) VH: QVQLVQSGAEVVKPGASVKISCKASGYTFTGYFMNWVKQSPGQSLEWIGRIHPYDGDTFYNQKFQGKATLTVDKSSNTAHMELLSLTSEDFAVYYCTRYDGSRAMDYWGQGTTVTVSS VL: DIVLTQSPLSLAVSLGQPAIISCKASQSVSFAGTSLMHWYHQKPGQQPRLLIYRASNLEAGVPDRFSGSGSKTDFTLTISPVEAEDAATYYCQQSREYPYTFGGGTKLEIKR was 0.5
